The values you see were collected from patent US6656937B2.

Where a name gives a salt, the structure may show the parent alone.
Let's look at some compounds and their measured melting point.

// below: answered compounds
> print(dat)
                                   compound  readout.label  recorded.measurement
1  O=C1CCC(CNc2ccc(C(c3ccccc3)(c3ccccc3)c3ccccc3)cc2)C(=O)N1 (centres unmarked)  melting point         221 to 225 °C
2  O=C1CCC(NCc2cc(Cl)ccc2Cl)C(=O)N1 (racemic) (as salt: hydrochloride)  melting point         242 to 246 °C
3  O=C1CCC(NCc2ccc(Cl)cc2)C(=O)N1 (racemic) (as salt: hydrochloride)  melting point         262 to 265 °C
4  O=C1CCC(NCc2cc(F)ccc2F)C(=O)N1 (racemic) (as salt: hydrochloride)  melting point         208 °C (dec.)
5  CC(=O)c1cccc(NCC2CCC(=O)NC2=O)c1 (centres unmarked)  melting point         129 to 132 °C

Query: Identify measured melting point corresponding to O=C1CCC(NCc2ccc(F)cc2)C(=O)N1 (racemic) (as salt: hydrochloride)
Response: 241 to 242 °C

Query: Supply recorded melting point for NC(=O)c1ccccc1CN[C@@H]1CCC(=O)NC1=O (as salt: hydrobromid) here.
Response: 232 to 233 °C

Query: Find the measured melting point of O=C1CCC(CNc2cccc(C(=O)c3ccccc3)c2)C(=O)N1 (centres unmarked) and report it.
Response: 152 to 158 °C

Query: Return melting point (reported value) for this compound: O=C1CCC(NCc2ccc(F)cc2Cl)C(=O)N1 (racemic) (as salt: hydrochloride)
Response: 241 to 242 °C

Query: Give reported melting point value for O=C1CCC(NCc2c(F)cccc2F)C(=O)N1 (racemic) (as salt: hydrochloride)
Response: 208 to 215 °C (dec.)

Query: Report melting point, nothing else, for this compound: O=C1CCC(NCc2cccc(Cl)c2)C(=O)N1 (racemic) (as salt: hydrochloride)
Response: 237 to 238 °C

Query: Look up melting point of O=C1CCC(NCc2cccc3ccccc23)C(=O)N1 (racemic) (as salt: hydrochloride) and report it.
Response: 188 °C (dec.)

Query: Identify melting point associated with the compound O=C1CCC(NCc2cccc(OC(F)(F)F)c2)C(=O)N1 (racemic) (as salt: hydrochloride)
Response: 199 to 201 °C

Query: Identify measured melting point corresponding to O=C1CCC(NCc2ccccc2Br)C(=O)N1 (racemic) (as salt: hydrochloride)
Response: 244 to 246 °C

Query: Identify measured melting point associated with O=C1CCC(NCc2cccc(Cl)c2Cl)C(=O)N1 (racemic) (as salt: hydrochloride)
Response: 246 to 248 °C

Query: Please look at this compound and report its melting point: CN(CC1CCC(=O)NC1=O)c1ccccc1 (centres unmarked)
Response: 132 to 134 °C

Query: Report measured melting point; entry is O=C1CCC(NCc2cc(Cl)cc(Cl)c2)C(=O)N1 (racemic) (as salt: hydrochloride)
Response: 234 to 238 °C

###

Below, each of the compounds is paired with its reported melting point value.
Where a name gives a salt, the structure may show the parent alone.

Worked cases, melting point given:
> print(dat)
                                    compound  readout.label  recorded.measurement
 1  O=C1CCC(NCc2cccc(F)c2)C(=O)N1 (racemic) (as salt: hydrochloride) [Example 2.19]  melting point         231 to 235 °C
 2  O=C1CCC(CNc2cccc3ccccc23)C(=O)N1 (centres unmarked) [Example 11.3]  melting point         145 to 148 °C
 3  O=C1CCC(NCc2cc(C(F)(F)F)cc(C(F)(F)F)c2)C(=O)N1 (racemic) (as salt: hydrochloride) [Example 2.34]  melting point         263 to 265 °C
 4  O=C1CCC(NCc2cccc(F)c2F)C(=O)N1 (racemic) (as salt: hydrochloride) [Example 2.7]  melting point  206 to 212 °C (dec.)
 5  NC(=O)c1ccccc1NCC1CCC(=O)NC1=O (centres unmarked) [Example 11.15]  melting point         203 to 206 °C
 6  O=C1CCC(NCc2cccc(Br)c2)C(=O)N1 (racemic) (as salt: hydrochloride) [Example 2.35]  melting point         229 to 232 °C
 7  O=C1CCC(NCc2ccc(C(F)(F)F)cc2)C(=O)N1 (racemic) (as salt: hydrochloride) [Example 2.21]  melting point         252 to 255 °C
 8  Cc1ccc(CNC2CCC(=O)NC2=O)cc1 (racemic) (as salt: hydrochloride) [Example 2.38]  melting point         256 °C (dec.)
 9  O=C1CCC(CNc2cccc(C(F)(F)F)c2)C(=O)N1 (centres unmarked) [Example 11.2]  melting point         135 to 138 °C
10  O=C1CCC(NCc2ccc(Cl)c(Cl)c2)C(=O)N1 (racemic) (as salt: hydrochloride) [Example 2.33]  melting point         252 to 254 °C

Query: Fill in reported melting point for this entry: COc1ccc(NCC2CCC(=O)NC2=O)cc1 (centres unmarked) [Example 11.13]
Response: 131 to 134 °C

Query: Given O=C1CCC(NCc2cc(F)cc(C(F)(F)F)c2)C(=O)N1 (racemic) (as salt: hydrochloride) [Example 2.18] , respond with its melting point.
Response: 241 to 243 °C

Query: Supply reported melting point belonging to this compound: COc1cccc(CNC2CCC(=O)NC2=O)c1 (racemic) (as salt: hydrochloride) [Example 2.41]
Response: 217 to 219 °C

Query: // fetch melting point given entry COc1ccc(CNC2CCC(=O)NC2=O)c(OC)c1 (racemic) (as salt: hydrochloride) [Example 2.2]
Response: 214 °C (dec.)

Query: Give me measured melting point, please, for this compound: O=C1CCC(NCc2ccccc2F)C(=O)N1 (racemic) (as salt: hydrochloride) [Example 2.29]
Response: 245 to 247 °C

###

Listed below: Inhibition of IL-12 production Maximum (%) values for each entry.
- Tested on: IL-12 production by LPS-activated monocytes
- test_details: Stimulation of human monocytes with lipopolysaccharide for secretion of IL-12 (IL-12 sandwich ELISA of culture supernatants)
- Assay type: cell-based
- study_conditions: CD14-positive human monocytes, 1 h preincubation with test substance, 20 μg/ml LPS from E. coli, 24 hours
State the answer as a number, implicitly in %.

Below, 5 compounds whose answers are already recorded.
> print(dat)
                                   compound  measurement.unit  recorded.measurement
1  O=C1CC[C@H](NCc2ccccc2C(=O)Nc2ccccc2)C(=O)N1                 %                    55
2        NC(=O)c1ccccc1CN[C@H]1CCC(=O)NC1=O                 %                    90
3  CC(=O)Nc1ccccc1CNC1CCC(=O)NC1=O (stereo not drawn)                 %                    95
4     O=C1CC[C@@H](NCc2ccccc2C(=O)O)C(=O)N1                 %                    75
5       COC(=O)c1ccccc1CN[C@H]1CCC(=O)NC1=O                 %                    90

Query: Provide one value: measured Inhibition of IL-12 production Maximum (%) of COC(=O)c1cc(SCC2CCC(=O)NC2=O)ccc1N (stereo not drawn)
Response: 66

Query: Entry "CCNC(=O)c1ccccc1CN[C@H]1CCC(=O)NC1=O" needs its Inhibition of IL-12 production Maximum (%) filled in; supply it.
Response: 80

Query: Fill in Inhibition of IL-12 production Maximum (%) for record "CCN(CC)C(=O)c1ccccc1CN[C@H]1CCC(=O)NC1=O"
Response: 90

Query: # return recorded Inhibition of IL-12 production Maximum (%) for entry COC(=O)c1ccccc1SCC1CCC(=O)NC1=O (stereo not drawn)
Response: 50

Query: Consider the compound O=CNc1ccccc1CNC1CCC(=O)NC1=O (stereo not drawn) and give its recorded Inhibition of IL-12 production Maximum (%).
Response: 98

Query: Identify measured Inhibition of IL-12 production Maximum (%) associated with "O=C1CC[C@@H](NCc2ccccc2C(=O)Nc2ccccc2)C(=O)N1"
Response: 50

Query: State, in one line, measured Inhibition of IL-12 production Maximum (%) of "NC(=O)c1ccccc1CN[C@@H]1CCC(=O)NC1=O"
Response: 84

Query: Determine from records and report Inhibition of IL-12 production Maximum (%) for "NNC(=O)c1ccccc1CN[C@H]1CCC(=O)NC1=O"
Response: 90

Query: Retrieve Inhibition of IL-12 production Maximum (%) measured for "O=C1CC[C@H](NCc2ccccc2C(=O)N2CCOCC2)C(=O)N1" and print it.
Response: 90

Query: Give Inhibition of IL-12 production Maximum (%) for "CCN(CC)C(=O)c1ccccc1CN[C@@H]1CCC(=O)NC1=O"
Response: 90

Query: Using known records, supply Inhibition of IL-12 production Maximum (%) for "O=C1CC[C@H](NCc2ccccc2C(=O)O)C(=O)N1"
Response: 85

Query: Given the compound "O=C1CC[C@H](NCc2ccccc2C(=O)N2CCCC2)C(=O)N1" , write its reported Inhibition of IL-12 production Maximum (%).
Response: 80

Query: Give me measured Inhibition of IL-12 production Maximum (%), please, for this compound: COC(=O)c1cc(SCC2CCC(=O)NC2=O)ccc1[N+](=O)[O-] (stereo not drawn)
Response: 57
